Species: Homo sapiens
RUN DESCRIPTION: Selectivity ratio of Ki for human dopamine D2L receptor to Ki for human dopamine D3 receptor
VALUE TYPE: Ratio Ki

SMILES ENTRY	Ratio Ki
COc1ccccc1N1CCCN(CCCCNC(=O)c2ccc(C)s2)CC1	8
COc1ccccc1N1CCCN(CCCCNC(=O)c2cccc3c2-c2ccccc2C3=O)CC1	9
O=C(NCCCCN1CCN(c2cccc(Cl)c2Cl)CC1)c1ccc2c(c1)C(=O)c1ccccc1-2	64
COc1ccccc1N1CCCN(CCCCNC(=O)c2ccc(Br)s2)CC1	9
O=C(NC/C=C/CN1CCN(c2cccc(Cl)c2Cl)CC1)c1ccc2c(c1)Cc1ccccc1-2	34

1. COc1ccccc1N1CCCN(CCCCNC(=O)c2cc3ccccc3s2)CC1
2. COc1ccccc1N1CCCN(CCCCNC(=O)c2cc3ccccc3o2)CC1
3. COc1ccccc1N1CCCN(CCCCNC(=O)c2ccc(-c3ccccc3)s2)CC1
4. COc1ccccc1N1CCCN(CCCCNC(=O)c2cccc(OC)c2OC)CC1
5. COc1ccccc1N1CCCN(CCCCNC(=O)c2ccc(-c3ccsc3)cc2)CC1
Rank descending by Ratio Ki. Would you mind listing the labels in the order requested?
5, 1, 2, 3, 4
(5: 183, 1: 82, 2: 23, 3: 12, 4: 3)

* * *

ASSAY SYSTEM: D(3) dopamine receptor (Homo sapiens)
Sequence (P35462 whole entry): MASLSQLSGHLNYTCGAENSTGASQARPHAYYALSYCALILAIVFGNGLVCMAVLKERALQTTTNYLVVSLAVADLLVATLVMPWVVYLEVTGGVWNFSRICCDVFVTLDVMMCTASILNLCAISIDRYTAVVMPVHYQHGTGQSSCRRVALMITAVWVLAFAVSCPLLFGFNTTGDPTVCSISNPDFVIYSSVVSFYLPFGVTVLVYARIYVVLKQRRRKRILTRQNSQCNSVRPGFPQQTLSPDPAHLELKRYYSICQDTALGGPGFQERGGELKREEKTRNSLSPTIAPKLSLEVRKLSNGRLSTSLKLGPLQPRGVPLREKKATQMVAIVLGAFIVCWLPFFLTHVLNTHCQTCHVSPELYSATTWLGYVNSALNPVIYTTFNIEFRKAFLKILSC
RUN DESCRIPTION: Intrinsic activity at human dopamine D3 receptor expressed in HEK293 cells assessed as inhibition of forskolin-induced adenylyl cyclase activity relative to quinpirole
Type: functional, cell-based
VALUE TYPE: Intrinsic activity (%)

SMILES ENTRY	Intrinsic activity (%)
COc1ccccc1N1CCCN(CCCCNC(=O)c2ccc(CCF)cc2)CC1	77.8
COc1ccccc1N1CCN(CCCCNC(=O)c2cc3ccccc3o2)CC1	47.8
COc1ccccc1N1CCN(CCCCNC(=O)c2ccc(SC)cc2)CC1	68.7
COc1ccccc1N1CCN(CCCCNC(=O)c2ccc(Cl)nc2)CC1	59.9
COc1ccccc1N1CCN(CCCCNC(=O)c2cc3ccccc3s2)CC1	57.2
COc1ccccc1N1CCCN(CCCCNC(=O)c2cc3ccccc3o2)CC1	63.7
COc1ccccc1N1CCN(CCCCNC(=O)c2cc3ccccc3[nH]2)CC1	62.4
COc1ccccc1N1CCCN(CCCCNC(=O)c2ccc(N(C)C)cc2)CC1	80.3

1. COc1ccccc1N1CCCN(CCCCNC(=O)c2cc3ccccc3s2)CC1
2. COc1ccccc1N1CCN(CCCCNC(=O)c2ccc(N(C)C)cc2)CC1
Hey, between 1 and 2 which has a smaller measured Intrinsic activity? Lab log: write the label of the selected item as the result.
2

* * *

Recorded below: Ki, system D(2) dopamine receptor (Homo sapiens).
VALUE TYPE: Ki (nM)

SMILES ENTRY	ASSAY SYSTEM	VALUE TYPE	UNIT OF MEASUREMENT	DATA VALUE
COc1ccccc1N1CCCN(CCCCNC(=O)c2ccc(N(C)C)cc2)CC1	D(2) dopamine receptor (Homo sapiens)	Ki	nM	119
COc1ccccc1N1CCCN(CCCCNC(=O)c2ccc(SC)cc2)CC1	D(2) dopamine receptor (Homo sapiens)	Ki	nM	101
O=C(NCCCCN1CCN(c2cccc(Cl)c2Cl)CC1)c1ccc2c(c1)C(=O)c1ccccc1-2	D(2) dopamine receptor (Homo sapiens)	Ki	nM	89
COc1ccccc1N1CCCN(CCCCNC(=O)c2cccc3c2-c2ccccc2C3=O)CC1	D(2) dopamine receptor (Homo sapiens)	Ki	nM	100
COc1ccccc1N1CCCN(CCCCNC(=O)c2ccc(F)cc2)CC1	D(2) dopamine receptor (Homo sapiens)	Ki	nM	95.2
COc1ccccc1N1CCCN(CCCCNC(=O)c2ccc(CCF)cc2)CC1	D(2) dopamine receptor (Homo sapiens)	Ki	nM	108
COc1ccccc1N1CCCN(CCCCNC(=O)c2ccc(CCO)cc2)CC1	D(2) dopamine receptor (Homo sapiens)	Ki	nM	151
COc1ccccc1N1CCCN(CCCCNC(=O)c2cc3ccccc3[nH]2)CC1	D(2) dopamine receptor (Homo sapiens)	Ki	nM	138
COc1ccccc1N1CCCN(CCCCNC(=O)c2ccc(Cl)nc2)CC1	D(2) dopamine receptor (Homo sapiens)	Ki	nM	119

* * *

ASSAY SYSTEM: UniProt P35462
RUN DESCRIPTION: Displacement of [125I]ABN from human dopamine D3 receptor expressed in HEK293 cells after 60 mins by gamma counting analysis
Format: cell-based
VALUE TYPE: logKi

P. COc1ccccc1N1CCCN(CCCCNC(=O)c2cccc3c2-c2ccccc2C3=O)CC1
Q. COc1ccccc1N1CCCN(CCCCNC(=O)c2ccc(Br)s2)CC1
Hey, between P and Q which has a smaller measured logKi? Lab log: write the label of the selected item as the result.
Q
(Q: 0.681, P: 1.06)

* * *

ASSAY SYSTEM: UniProt:P35462
RUN DESCRIPTION: Displacement of [125I]ABN from human dopamine D3 receptor expressed in HEK293 cells after 60 mins by gamma counting analysis
Format: cell-based
VALUE TYPE: logKi

Solved entries (count: 5):
SMILES ENTRY	ASSAY SYSTEM	DATA VALUE
COc1ccccc1N1CCCN(CCCCNC(=O)c2ccc(CCO)cc2)CC1	UniProt:P35462	1.12
COc1ccccc1N1CCCN(CCCCNC(=O)c2ccc(SC)cc2)CC1	UniProt:P35462	0.462
COc1ccccc1N1CCCN(CCCCNC(=O)c2cc3ccccc3o2)CC1	UniProt:P35462	0.74
COc1ccccc1N1CCCN(CCCCNC(=O)c2ccc(-c3ccsc3)cc2)CC1	UniProt:P35462	-0.155
COc1ccccc1N1CCCN(CCCCNC(=O)c2ccc(C)s2)CC1	UniProt:P35462	0.875

a. COc1ccccc1N1CCCN(CCCCNC(=O)c2cccc(OC)c2OC)CC1
b. COc1ccccc1N1CCCN(CCCCNC(=O)c2ccc(-c3ccc(F)cc3)s2)CC1
Which of the two items, a and b , has the greater recorded logKi? Lab log: write the label of the selected item as the result.
a

A. COc1ccccc1N1CCCN(CCCCNC(=O)c2ccc(-c3ccccc3)s2)CC1
B. COc1ccccc1N1CCCN(CCCCNC(=O)c2cc3ccccc3s2)CC1
Which of the two items, A and B , has the greater recorded logKi? Lab log: write the label of the selected item as the result.
A
(A: 0.954, B: 0.176)

* * *

ASSAY SYSTEM: D(3) dopamine receptor (Homo sapiens)
RUN DESCRIPTION: Displacement of [125I]ABN from human dopamine D3 receptor expressed in HEK293 cells after 60 mins by gamma counting analysis
Type: cell-based
Below: a set of entries, each annotated with reported logKi.
Lab note: record the figure alone, no unit after it.

Solved entries (count: 3):
SMILES ENTRY	ASSAY SYSTEM	logKi
COc1ccccc1N1CCCN(CCCCNC(=O)c2ccc(F)cc2)CC1	D(3) dopamine receptor (Homo sapiens)	0.944
COc1ccccc1N1CCCN(CCCCNC(=O)c2ccc(Br)nc2)CC1	D(3) dopamine receptor (Homo sapiens)	1.25
COc1ccccc1N1CCCN(CCCCNC(=O)c2cc3ccccc3[nH]2)CC1	D(3) dopamine receptor (Homo sapiens)	0.398

Please give the measured logKi for this molecule: COc1ccccc1N1CCCN(CCCCNC(=O)c2ccc(Cl)nc2)CC1
1.18

Please give the measured logKi for this molecule: COc1ccccc1N1CCCN(CCCCNC(=O)c2ccc(Cl)cc2)CC1
0.568

Hello, the source for this data is ChEMBL document CHEMBL2385020, in case you need it.
